tested on: A498 renal; assay: NCI-60 one-dose screen, 48 h; conditions: 10 µM unless noted
This is part of a sample that, as a whole, favours compounds with a hit. Of some 83,000 tested, about 20% had one in any assay. Active and inactive are the calls of the source. Rule for the calls: active = growth percent below 10; inactive = the rest.
Valid outcomes are listed here; reply with one: 1 (yes) (active), 0 (no) (inactive)

// known answers, use as guide
CCOC(=O)C(C(=O)OCC)C1CCCCC1 ... 0 (no)
O=C(/C=C/c1ccc([N+](=O)[O-])cc1)c1ccc2c3c(cccc13)CC2 ... 1 (yes)
COc1cccc(N2CCN(c3cccc(C)n3)CC2)c1 ... 0 (no)
NS(=O)(=O)N(c1cc(C(F)(F)F)cc(C(F)(F)F)c1)C1CCN(Cc2ccc(C(F)(F)F)cc2)CC1 ... 0 (no)
CCOC1Oc2ccccc2C(=O)/C1=N/c1nccs1 (stereo unspecified) ... 0 (no)

Query :: What was the test verdict on Cc1ccc2c(c1)C(=O)/C(=C\Nc1ccc(C(N)=O)cc1)C(O)O2 (stereo unspecified) ?
Result :: 0 (no)

Query :: What was the test verdict on COc1ccc2c(c1)[n+](=O)c(C(=O)/C=C/c1cc(OC)c(OC)c(OC)c1)c(C)n2[O-] ?
Result :: 0 (no)

Query :: What was the test verdict on O=C(CC1Sc2ccccc2NC1=O)NNc1cccc(Cl)c1Cl (stereo unspecified) ?
Result :: 0 (no)

Entry source: PubChem BioAssay (NCI)
